- TARGET: UniProt:O15075
- Sequence (O15075 whole entry): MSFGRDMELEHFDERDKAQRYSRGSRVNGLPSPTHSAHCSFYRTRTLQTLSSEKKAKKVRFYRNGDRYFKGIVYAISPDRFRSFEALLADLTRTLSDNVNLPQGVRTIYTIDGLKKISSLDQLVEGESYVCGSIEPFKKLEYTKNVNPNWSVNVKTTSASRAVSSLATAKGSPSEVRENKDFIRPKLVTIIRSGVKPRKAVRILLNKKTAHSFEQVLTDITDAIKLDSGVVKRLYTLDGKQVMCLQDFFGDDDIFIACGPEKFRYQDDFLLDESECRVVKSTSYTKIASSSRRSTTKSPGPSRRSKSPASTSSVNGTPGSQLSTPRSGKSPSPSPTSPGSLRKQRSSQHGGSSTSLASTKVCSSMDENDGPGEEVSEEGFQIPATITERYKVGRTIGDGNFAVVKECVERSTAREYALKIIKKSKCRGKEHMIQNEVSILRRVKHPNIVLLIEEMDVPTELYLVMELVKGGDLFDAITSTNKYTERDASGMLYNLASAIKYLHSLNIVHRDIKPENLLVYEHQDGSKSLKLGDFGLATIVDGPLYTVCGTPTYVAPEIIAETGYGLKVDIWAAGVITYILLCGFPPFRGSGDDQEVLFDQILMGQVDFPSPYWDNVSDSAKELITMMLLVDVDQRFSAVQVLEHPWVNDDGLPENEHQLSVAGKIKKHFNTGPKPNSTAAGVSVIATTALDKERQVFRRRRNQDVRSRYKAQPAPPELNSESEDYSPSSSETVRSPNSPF
- ASSAY EXPLANATION: SPR with immobilized recombinant DCLK1
REPORTED ENDPOINT: pKd
Note on units: pKd is unitless, being -log10 of a concentration expressed in mol/L.

IN: Value lookup for pKd; key = `O=C1C(=Cc2ccc(F)cc2F)CNCC1=Cc1ccc(F)cc1F`
OUT: 7.15
